Below, each entry is listed alongside its reported Inhibition.
Tested on: Plasmodium falciparum
test: GSK_TCMDC: Inhibition of Plasmodium falciparum 3D7 in whole red blood cells, using parasite LDH activity as an index of growth. Test compounds present at 2uM
Format: functional
Expressed in %, but write only the number.

[ask] Look up Inhibition for this molecule: CC(Cc1ccc(NC(=O)[C@@H](C)NCCc2cccc(Cl)c2)cc1)NCCc1cccc(Cl)c1.Cl (stereo partly specified)
[reply] 99

[ask] Using the record for CN(c1cc(NC(=O)c2ccc(F)cc2)ccn1)C1CCN(Cc2cccc(O)c2)CC1.O=C(O)C(F)(F)F , report its Inhibition.
[reply] 100

[ask] Would you mind telling me what Inhibition value was observed for CN(C)c1cccc(CCNCCc2c[nH]c3ccc(Cl)cc23)c1.O=C(O)C(=O)O ?
[reply] 94

[ask] Recorded Inhibition of Cc1ccc(C)c(N2CCN(Cc3ccccc3O)CC2)c1 , please.
[reply] 100

Now let's try a different one.
[ask] Recorded Inhibition for Cc1c(C)c2c(c(C)c1O)CC[C@](C)(C(=O)N1CCC(CN3CCC(c4c[nH]c5ccccc45)CC3)CC1)O2 , please?
[reply] 100
